Test system: Cyclooxygenase
procedure_details: Formation of prostaglandin D2 by neutrophils as measure of cyclooxygenase activity (A23187 stimulation, RIA)
Format: cell-based, Sprague Dawley Ratten
measurement_parameters: rat peritoneal neutrophils (carrageenan-elicited), 2x10⁶ cells, A23187 2 µmol/l, 5 min 37°C, PGD2 by RIA; read-out: IC50 (µmol/l) PGD2
measured_attribute: IC50 (µmol/L)
Form entry: value (µmol/L) — number only.

Find the measured IC50 of CN1C(C(=O)Nc2ccccn2)=C(O)c2sc(Cl)cc2S1(=O)=O [A] and report it.
0.02

----------
assayed_system: UniProtKB P12527
Sequence (P12527 1-673): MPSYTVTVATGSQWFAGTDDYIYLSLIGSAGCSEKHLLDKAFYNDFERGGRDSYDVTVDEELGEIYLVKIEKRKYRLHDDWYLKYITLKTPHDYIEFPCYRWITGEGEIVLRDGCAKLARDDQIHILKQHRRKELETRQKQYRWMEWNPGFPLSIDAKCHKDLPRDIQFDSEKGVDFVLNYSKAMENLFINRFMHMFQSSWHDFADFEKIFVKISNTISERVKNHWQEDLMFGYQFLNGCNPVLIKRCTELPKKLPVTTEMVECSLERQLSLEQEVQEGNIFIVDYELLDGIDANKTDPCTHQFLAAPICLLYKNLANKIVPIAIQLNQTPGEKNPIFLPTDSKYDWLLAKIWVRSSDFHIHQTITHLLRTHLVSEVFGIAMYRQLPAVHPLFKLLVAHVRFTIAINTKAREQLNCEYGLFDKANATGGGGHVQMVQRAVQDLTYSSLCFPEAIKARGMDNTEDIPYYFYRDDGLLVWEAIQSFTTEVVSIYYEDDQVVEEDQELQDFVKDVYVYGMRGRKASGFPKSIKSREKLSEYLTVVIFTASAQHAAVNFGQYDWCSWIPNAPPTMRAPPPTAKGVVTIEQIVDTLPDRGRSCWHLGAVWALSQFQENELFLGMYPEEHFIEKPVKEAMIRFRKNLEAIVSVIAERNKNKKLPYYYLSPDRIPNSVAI
procedure_details: Formation of leukotriene B4 by neutrophils as measure of 5-lipoxygenase activity (A23187 stimulation, RIA)
Type: cell-based, Sprague Dawley Ratten
measurement_parameters: rat peritoneal neutrophils (carrageenan-elicited), 2x10⁶ cells, A23187 2 µmol/l, 5 min 37°C, LTB4 by RIA; read-out: IC50 (µmol/l) LTB4
So I've got a bunch of compounds here, and I need their pIC50 values.
# pIC50 = -log10(concentration in molar units)

Identify the reported pIC50 for the following entry. CN1C(C(=O)Nc2cccc(-c3ccc(Oc4ccc(F)cc4)o3)n2)=C(O)c2sc(Cl)cc2S1(=O)=O
5.89

Using the record for CN1C(C(=O)Nc2cccc(-c3cccc(Oc4ccc(F)cc4)c3)n2)=C(O)c2sc(Cl)cc2S1(=O)=O , state its measured pIC50.
5.77

// fetch pIC50 given entry CN1C(C(=O)Nc2cccc(-c3cc4ccccc4o3)n2)=C(O)c2sc(Cl)c(Cl)c2S1(=O)=O
5.89

Specify pIC50 for CN1C(C(=O)Nc2cccc(-c3cc4ccccc4s3)n2)=C(O)c2sc(Cl)cc2S1(=O)=O and stop.
5.70

----------
assayed_system: 5-Lipoxygenase (Rattus norvegicus, UniProt P12527)
procedure_details: Formation of leukotriene B4 by neutrophils as measure of 5-lipoxygenase activity (A23187 stimulation, RIA)
Type: cell-based, Sprague Dawley Ratten
measured_attribute: pIC50
Reminder that pIC50 is minus the log10 of a molar concentration.

Send back 5-Lipoxygenase (Rattus norvegicus, UniProt P12527) pIC50 of CN1C(C(=O)Nc2cccc(-c3ccc(-c4ccccc4)cc3)n2)=C(O)c2sc(Cl)cc2S1(=O)=O only.
5.85

Every entry's value here was drawn from patent EP0657459A1.
